# target.of.assay: T1, His-tagged cynomolgus monkey TfR ectodomain (cyTFRC_89_760; mature protein) (cynomolgus monkey (Macaca fascicularis), UniProt Q5RDH6 89-760 (Pongo abelii entry))
# T1 construct: also called cTfR; cTfR ectodomain
# T1 chain: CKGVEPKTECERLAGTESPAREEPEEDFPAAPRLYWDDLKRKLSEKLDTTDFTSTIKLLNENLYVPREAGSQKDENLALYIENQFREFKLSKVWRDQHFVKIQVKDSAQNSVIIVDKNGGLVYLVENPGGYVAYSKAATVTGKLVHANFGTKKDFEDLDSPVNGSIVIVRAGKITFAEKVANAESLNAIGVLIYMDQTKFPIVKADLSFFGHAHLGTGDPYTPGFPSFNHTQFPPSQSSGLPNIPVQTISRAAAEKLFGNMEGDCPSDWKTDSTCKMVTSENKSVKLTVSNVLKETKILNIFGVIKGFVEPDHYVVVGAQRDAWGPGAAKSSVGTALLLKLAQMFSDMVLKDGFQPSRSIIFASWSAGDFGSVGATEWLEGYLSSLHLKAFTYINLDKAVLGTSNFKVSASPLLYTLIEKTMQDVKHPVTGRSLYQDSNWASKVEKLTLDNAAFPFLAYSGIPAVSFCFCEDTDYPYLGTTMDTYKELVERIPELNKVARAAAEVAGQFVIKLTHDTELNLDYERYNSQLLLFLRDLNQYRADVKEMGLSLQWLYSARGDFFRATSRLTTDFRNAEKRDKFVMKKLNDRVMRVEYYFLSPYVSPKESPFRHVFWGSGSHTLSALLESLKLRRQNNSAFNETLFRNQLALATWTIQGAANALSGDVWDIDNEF
# measurement.description: SPR, His-tagged TfR ectodomain captured on anti-His, 1:1 fit
Listing of entries alongside the reported Kd.
Value expressed in nM; do not type the unit.

531_1L2_variant8 Fab (Fab, V domains shown, Humanized Fab; The His-tag was removed with TEV protease before SPR) VH: EVQLLESGGGLVQPGGSLRLSCAASGYTFTRYYLNWVRQAPGKGLEWIGMIDPSVSETHYADSVKGRATLSVDKSKNTAYLQMNSLRAEDTAVYYCSQIRLPYYYAMDSWGQGTTVTVSS VL: DIQMTQSPSSLSASVGDRVTITCRASQDISSFLNWYQQKPGKAVKLLIYYTSRLQSGVPSRFSGSGSGTDYTLTISSLQPEDFATYFCQQGNTLPRTFGGGTKVEIK : 475
531_1L2_variant6 Fab (Fab, V domains shown, Humanized Fab; The His-tag was removed with TEV protease before SPR) VH: EVQLLESGGGLVQPGGSLRLSCAASGYTFTRYWLNWVRQAPGKGLEWIGMIDPSVSETHYADSVKGRATLSVDKSKNTAYLQMNSLRAEDTAVYYCSQIRLPYYYAMDSWGQGTTVTVSS VL: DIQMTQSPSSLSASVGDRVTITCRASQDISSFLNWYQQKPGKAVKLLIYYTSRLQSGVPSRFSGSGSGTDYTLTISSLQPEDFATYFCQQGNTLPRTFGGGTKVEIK : 300

Item: 531_1L2_variant24 Fab (Fab, V domains shown, Humanized Fab; The His-tag was removed with TEV protease before SPR) VH: QVQLVQSGAEVKKPGASVKVSCKASGYTFTRYYLNWVRQAPGQGLEWIGMIDPSVSETHYAQKFQGRATLTVDKSTSTAYMELSSLRSEDTAVYYCSQIRLPYYYAMDSWGQGTTVTVSS VL: DIQMTQSPSSLSASVGDRVTITCRASQDISSFLNWYQQKPGKAVKLLIYYTSRLQSGVPSRFSGSGSGTDFTLTISSLQPEDFATYFCQQGNTLPRTFGGGTKVEIK | Kd: 84.6
